Origin of values: patent US11680050B2

# EXPERIMENT_SUMMARY: Solubility assessment of saturated solutions in SGF, FeSSIF and water, measured by HPLC
# Type: physicochemical
# MEASUREMENT_CONTEXT: water, thermodynamic from solid, H2O, 4 h
ATTRIBUTE_MEASURED: solubility at 4 h (µg/mL)
Only the number, expressed in µg/mL, is required.

Enquiry: Consider the molecule CC(C)Oc1ccc(-c2nc(-c3cccc4c3CC[C@@H]4NCCO)no2)cc1C#N [Form CS5, ozanimod] and give its measured solubility at 4 h.
Return: 260

###

I'd be grateful if you could share measured 4 week purity % for these entries.
# EXPERIMENT_SUMMARY: Stability assessment in constant temperature and humidity chambers (HPLC purity, XRPD crystalline form)
# Type: physicochemical
# MEASUREMENT_CONTEXT: 25° C./60% RH, 4 weeks, HPLC
Only the number, expressed in %, is required.

Enquiry: Consider the compound CC(C)Oc1ccc(-c2nc(-c3cccc4c3CC[C@@H]4NCCO)no2)cc1C#N [Form CS1, ozanimod] and give its measured 4 week purity %.
Return: 98.97

Enquiry: Consider the compound CC(C)Oc1ccc(-c2nc(-c3cccc4c3CC[C@@H]4NCCO)no2)cc1C#N [Form CS3, ozanimod] and give its measured 4 week purity %.
Return: 99.31

Enquiry: Consider the compound CC(C)Oc1ccc(-c2nc(-c3cccc4c3CC[C@@H]4NCCO)no2)cc1C#N [Form CS6, ozanimod] and give its measured 4 week purity %.
Return: 98.27

Enquiry: Consider the compound CC(C)Oc1ccc(-c2nc(-c3cccc4c3CC[C@@H]4NCCO)no2)cc1C#N [Form CS2, ozanimod] and give its measured 4 week purity %.
Return: 99.62
